- Study Target: feline FcRn complex (FcRn-α subunit and β-microglobulin), biotin labeled (feline)
- Assay Text: SPR, pH 6
Experimental Readout: pKd
Please report pKd as the negative decimal logarithm of the molar concentration, giving only the number.

- Binder: "feline IgG1a S252P (antibody, part only; not given: Variable domains, not shown: another chain or arm of the molecule) constant: ASTTAPSVFPLAPSCGTTSGATVALACLVLGYFPEPVTVSWNSGALTSGVHTFPAVLQASGLYSLSSMVTVPSSRWLSDTFTCNVAHPPSNTKVDKTVRKTDHPPGPKPCDCPKCPPPEMLGGPSIFIFPPKPKDTLPISRTPEVTCLVVDLGPDDSDVQITWFVDNTQVYTAKTSPREEQFNSTYRVVSVLPILHQDWLKGKEFKCKVNSKSLPSPIERTISKAKGQPHEPQVYVLPPAQEELSRNKVSVTCLIKSFHPPDIAVEWEITGQPEPENNYRTTPPQLDSDGTYFVYSKLSVDRSHWQRGNTYTCSVSHEALHSHHTQKSLTQSPGK"
  Experimental Readout: "pKd"
  Value Observed: 5.15

Please find the next binder below.
Prompt: Which pKd value belongs to feline IgG1a S252M/S428M/S434N/H436Y (antibody, part only; not given: Variable domains, not shown: another chain or arm of the molecule) constant: ASTTAPSVFPLAPSCGTTSGATVALACLVLGYFPEPVTVSWNSGALTSGVHTFPAVLQASGLYSLSSMVTVPSSRWLSDTFTCNVAHPPSNTKVDKTVRKTDHPPGPKPCDCPKCPPPEMLGGPSIFIFPPKPKDTLMISRTPEVTCLVVDLGPDDSDVQITWFVDNTQVYTAKTSPREEQFNSTYRVVSVLPILHQDWLKGKEFKCKVNSKSLPSPIERTISKAKGQPHEPQVYVLPPAQEELSRNKVSVTCLIKSFHPPDIAVEWEITGQPEPENNYRTTPPQLDSDGTYFVYSKLSVDRSHWQRGNTYTCSVMHEALHNHYTQKSLTQSPGK ?
Response: 7.69
